Reported values of relative viability for individual entries
# Tested on: NCI-H1993
# experiment: relative viability (nuclei count vs DMSO), 5 days (fraction); higher = more cells survive
# experimental.parameters: first compound 4 µM

compound: Clc1ccc(Nc2nnc(Cc3ccncc3)c3ccccc23)cc1 [Vatalanib] + CS(=O)(=O)N1CCN(Cc2cc3nc(-c4cccc5[nH]ncc45)nc(N4CCOCC4)c3s2)CC1 [Pictilisib] (partner 1 µM)
assay.target: NCI-H1993
relative viability: 0.887
--
compound: C[C@@H]1CN(CC(=O)Nc2ccc3c(c2)Cc2cccc(-c4cc(=O)cc(N5CCOCC5)o4)c2S3)C[C@H](C)O1 + CS(=O)(=O)N1CCN(Cc2cc3nc(-c4cccc5[nH]ncc45)nc(N4CCOCC4)c3s2)CC1 [Pictilisib] (partner 1 µM)
assay.target: NCI-H1993
relative viability: 0.912
